Test system: MS2 coat protein
protocol_description: apparent KD of MS2 coat protein; designed switch direction (-1 OFF switch, 1 ON switch): -1; higher = weaker reporter binding
recorded_conditions: Eterna round: R95; input ligand: FMN 200 uM
Parameter threshold = 50 nM. Response is Yes when apparent KD of MS2 coat protein meets or exceeds it, else No.

Known results for sequences:
sequence_code	class_label
AUAGAGUCAGGAUAUACAGGUGGAGGAAAGCAGCAUAAGGAGUAGAAGGGACAUGAGGAUCACCCAUGUAAGUG [JR_Exclu4_Sub058] (puzzle: Exclusion 4)	No
CAGUACUGCAGGCUUUGGGACAUGAGGAUCACCCAUGUUCGUCUUAUUGAUCUAGGUACGCUGACGUACCUAGAUCU [JL-sv1-2.14 Brourd mod] (puzzle: Sensor v3, turn-off variant 1)	No
UAGAAUCGAGGAUAUACAUGAGGAUCACCCAUGUGUGGCCACUUGGUGUGGUCGUCAGGUAGAAGGCGAUUACA [Exclusion 3 - Mod of Jieux's Gilly Gone Silly 23 v.4] (puzzle: Exclusion 3)	No
CUGAGCAGACGGAGAUCCAACAUGAGGAUCACCCAUGUCUCAAAAGCUUUCUGCUCGUCUUAUCCUCCUCUGUUCUC [Engeonrati] (puzzle: Sensor v3, turn-off variant 1)	Yes
GAUUGACAUGAGGAUCACCCAUGUGAGGAUAUCGGCUGGACCGUGUUGGCUUGGCUUUCGAGAAGGCGCAUAGG [Exclusion 1 V47] (puzzle: Exclusion 1)	Yes

Kindly determine if apparent KD of MS2 coat protein recorded for ACAAGCUUUUUGUUCGUCUUAUAAAAUCCUAAGAGGAAAACAUGAGGAUCACCCAUGUAACAAAGACGGACUCAUGU [Sesor Array 12 - Jieux - Sensor v3, turn-off variant 2] (puzzle: Sensor v3, turn-off variant 2) is above or exactly 50 nM.
No

Kindly determine if apparent KD of MS2 coat protein recorded for AUUUUAACAUAGGAUAUCGAAUUUAUCAUUUAACGAGAAGGAUGAACAUGAGGAUCACCCAUGUGGUAUCAUGG [JL-ex6-3.01] (puzzle: Exclusion 6) is above or exactly 50 nM.
Yes

Kindly determine if apparent KD of MS2 coat protein recorded for AGAAAUGCCCAUGGCCGCAAGCUUUUCGCUUGUCUUACCACAUGAGGAUCACCCAUGUGACAUGGGCUCCUUAUAAU [Usdigeor] (puzzle: Sensor v3, turn-off variant 2) is above or exactly 50 nM.
No

Kindly determine if apparent KD of MS2 coat protein recorded for AAGAAACAUGAGGAUCACCCAUGUGAGGAUAUGAUUAAGAAAAGAAAAGAAAGAAGAGUCAGAAGGCACAAAGG [salish99-ex1_r3_063] (puzzle: Exclusion 1) is above or exactly 50 nM.
Yes

Kindly determine if apparent KD of MS2 coat protein recorded for UAGUGGGUACGAAGGAGUAGUUUGAGCGUACGUUCUGUAACAUGAGGAUCACCCAUGUAGCUUUUUGCUCGACUUAU [JR_SV3TOV2_Sub037] (puzzle: Sensor v3, turn-off variant 2) is above or exactly 50 nM.
No

* * *

System: MS2 coat protein
protocol_description: apparent KD of MS2 coat protein; designed switch direction (-1 OFF switch, 1 ON switch): -1; higher = weaker reporter binding
recorded_conditions: input ligand: none
This section presents sequences with their documented apparent KD of MS2 coat protein values.
Please respond with the number in µM and leave the unit unwritten.

sequence_code	units_symbol	apparent KD of MS2 coat protein
AAAUAUCAUGUAGGAUAUGGUAGGCGAACCUUACCAGAAGGACAUGAGGAUCACCCAUGUGCUGAGUUGUCCGUAGACAGCUCU [Ex NG1 #4] (Eterna round: R96, puzzle: Exclusion NG 1)	µM	0.0787
AGUCCUAGUCAAGGAUAUACACCGAAGAAAUACGUAGAAGGUGACAUGAGGAUCACCCAUGUAGGGACUCUGGAAACAGAGGAA [Arordi] (Eterna round: R96, puzzle: Exclusion NG 1)	µM	0.218

Query for MS2 coat protein: what apparent KD of MS2 coat protein does the record show for AAUACAAGCUAUUGAUCCCACAUGAGGAUCACCCAUGUAGGUGGCGGUGACACCUCCUUUACGAUAGCUCGUCUUAU [Sensor-V1 #54] (Eterna round: R97, puzzle: Sensor, turn-off variant 1) ?
0.226

Query for MS2 coat protein: what apparent KD of MS2 coat protein does the record show for GUCAGACGAGGAUAUAAAUUUGAUAACAUGAGGAUCACCCAUGUGAUCGAUAGAUCAAAUUUAGAAGGUGUCUGAC [E5/7-B3] (Eterna round: R97, puzzle: Exclusion 5) ?
0.501

Query for MS2 coat protein: what apparent KD of MS2 coat protein does the record show for CUUAAUUGUCACAUGGGUGACAUGAGGAUCACCCAUGUCACAAGCUUUUUGUUCGUCUUAUAAUUAACCCAUGUGAC [Stov1/12-B3] (Eterna round: R97, puzzle: Sensor, turn-off variant 1) ?
0.0137

* * *

Test system: MS2 coat protein
protocol_description: apparent KD of MS2 coat protein; higher = weaker reporter binding
recorded_conditions: Eterna round: R107; input ligand: theophylline 2 mM
Parameter threshold = 0.04 µM. Response is Criterion met when apparent KD of MS2 coat protein meets or exceeds it, else Criterion not met.

sequence_code	class_label
AAGGUGAUCCGUGAUACCAGCUCAACAUGAGGAUCACCCAUGUAACGGACGAAAGUCCGGAGCCCUUGGCAGCACGGUUGCCAAG [(M)'-(Theo1)-(Ms2)-(Theo2)-(M'')-(T2)'_Design1b]	Criterion not met
UUAACGAGCUGAAGGAGCGCUCCUCAACAACAUGAGGAUCACCCAUGUACACAUAAUAGGGAGCAGGUAGGUCGCAGCAGGAUGG [ss-argB-?]	Criterion not met

Kindly determine if apparent KD of MS2 coat protein recorded for CCGGGCCCGGGAGACCGGGCCCGGACUGAAGGAGCGGGAAUAAACCCAGGUAGGUCGCAGAGAUCCACAUGAGGAUCACCCAUGU [!0.U] is above or exactly 0.04 µM.
Criterion not met

Kindly determine if apparent KD of MS2 coat protein recorded for UGUAUGUGAUUUGAUACCAGACCAGCUGGUGGUACACGAGGAUCACCCGUGUAGGUUUGGGUCCCUUGGCAGCAAAUCGCAUACU [SS Theo B #24 Ms3] is above or exactly 0.04 µM.
Criterion not met

Kindly determine if apparent KD of MS2 coat protein recorded for UAUAUAUAUCACGAACUGUGGUGUAUGUCCCGAGGACCGGUACGGCCGCCACUCGCGUGGUUCCACAUGAGGAUCACCCAUGUUG [XTryp A #7] is above or exactly 0.04 µM.
Criterion not met

Kindly determine if apparent KD of MS2 coat protein recorded for UGUACCAUGUCGGCCGCCACUCAUGAUAAACAUGAGGAUCACCCAUGUAGCGUCAAAGACGCUAUGAGGACCGGGACAUGGUACU [TryBS Zipper 2 #StaticStem #Zipper] is above or exactly 0.04 µM.
Criterion met

Kindly determine if apparent KD of MS2 coat protein recorded for AUGACUUACGGGCGCCAUUUGUAAUAGGAAGGAGCGGCGAGAUAGCCAGGUAGGUCGCCUAUACAUGAGGAUCACCCAUGUCACC [Vegeorbe] is above or exactly 0.04 µM.
Criterion met

Kindly determine if apparent KD of MS2 coat protein recorded for AGCCACUCGAACAUGGGUGACGAGUGGCAACGAGGACCGGUACGGCCGCCACUCGAAUAAACAUGAGGAUCACCCAUGUACAAAU [T''-M'-T'-T-MS2 - Design 9] is above or exactly 0.04 µM.
Criterion met

Kindly determine if apparent KD of MS2 coat protein recorded for GGUUACUCUACGGCCGCCACUGAUUAAUUAUAAUCCUGUACAUAAACAUGAGGAUCACCCAUGUACAGGACCGGGUAGUGUAACC [Tryptophan B 10] is above or exactly 0.04 µM.
Criterion not met

Kindly determine if apparent KD of MS2 coat protein recorded for CGCACAUGAGGAUCACCCAUGUGAGGGCGUCGAGGACCGGUACGGCCGCCACUCGCAGGACAUGAGGAUCACCCAUGUGCCGCCG [SSTA DOUBLE!!! :-D #4] is above or exactly 0.04 µM.
Criterion met

Kindly determine if apparent KD of MS2 coat protein recorded for GCUGCCAUACGAAGGAGCGCUGCUGCGAUGUGGCGAACAUGAGGAUCACCCAUGUGGCAGCGGCAGGUAGGUCGCGUAUGGCAGC [#02 Exclusion - Arginine B] is above or exactly 0.04 µM.
Criterion met

Kindly determine if apparent KD of MS2 coat protein recorded for AGGACAUCGAGAAGGAGCGCAUCCAAACCACACAUGAGGAUCACCCAUGUAUAAAUAUGCAUGCAGGUAGGUCGCUCGGCGUCUU [Leanerin] is above or exactly 0.04 µM.
Criterion met

Kindly determine if apparent KD of MS2 coat protein recorded for AGACCCUUCACGGCCGCCACUCAUUUUAAGUAGAGAGAGUACAUGAGGAUCACCCAUGUGAGAGAGAGGACCGGGUGAGAUAUUA [ss-trypB-0] is above or exactly 0.04 µM.
Criterion not met

Kindly determine if apparent KD of MS2 coat protein recorded for AAAUGAAGGCGAAGGAGCGGGAACAUGAGGAUCACCCAUGUGUAUGUAUGUAGUCAUGUAUCUCAGGUAGGUCGCGCUGUUACAU [Exclusion Arginine B 2] is above or exactly 0.04 µM.
Criterion met

Kindly determine if apparent KD of MS2 coat protein recorded for AAAAUAUAGACGGCCGCCACUAUAAUCAUGAGGAACAUGAGGAUCACCCAUGUAUGAGGAUCACCUAGGACCGGGUCAUAUAAAA [#24 Exclusion Tryptophan B] is above or exactly 0.04 µM.
Criterion not met

Kindly determine if apparent KD of MS2 coat protein recorded for UCGUUUUAGUCGGCCGCCACUGUGAGCAUGGUUAACAUGAGGAUCACCCAUGUCCCGUACUAUAACAGGACCGGGACGUAGUUGC [#09 Same State - Tryptophan B] is above or exactly 0.04 µM.
Criterion met

Kindly determine if apparent KD of MS2 coat protein recorded for GUUGGUUUGGGAAGGAGCGGGUAUGUUGUCUACUUGAUCCUAACAUGAGGAUCACCCAUGUCCCAGGUAGGUCGCCCAAGCUUUG [12.aE] is above or exactly 0.04 µM.
Criterion met

Kindly determine if apparent KD of MS2 coat protein recorded for UUGAUUACCCAAGCGUGAUGGUCCUAGGAACGAGGACCGGUACGGCCGCCACUCGCAAGCAAACAUGAGGAUCACCCAUGUUUAU [theeternabot_exclusion_MS2_Trp_A_19] is above or exactly 0.04 µM.
Criterion not met

Kindly determine if apparent KD of MS2 coat protein recorded for ACAUGAGGAUCACCCAUGUGAAGCAGGGUACGAGGACCGGUACGGCCGCCACUCGAGGAUUAUGCCGAGUGAAUGGCAACGAUGU [whbob_Ex_trypto A_2s19] is above or exactly 0.04 µM.
Criterion not met

Kindly determine if apparent KD of MS2 coat protein recorded for CGUACAUGAGGAUCACCCAUGUUACAUGAUACCAGACAUGAAAAUGUCCCUUGGCAGCAUGGCGCUGAUAGGGCGGGAAACCCGA [Zabovresky] is above or exactly 0.04 µM.
Criterion not met

Kindly determine if apparent KD of MS2 coat protein recorded for CCGGUUAGGACGGCCGCCACUGUGGCUACGGUACAUGAGGAUCACCCAUGUUUGUGGUUGAUCUACAGGACCGGGUCCUGACACG [Eronri] is above or exactly 0.04 µM.
Criterion met

Kindly determine if apparent KD of MS2 coat protein recorded for AACAUGAGGAUCACCCAUGUGUCCUCGAAACGAGGACCGGUACGGCCGCCACUCGAAGCAUGUUGACGAAAAGUCAGCAUGCAAA [Mat - Exclusion - Trytophan A - D14] is above or exactly 0.04 µM.
Criterion met
